test system: DRAK2; construct: gene STK17B; conditions: concentration: 1 μM, replicates: in singlicate; n = 1;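 also: KINOMEscan kinase panel screen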
In this section we review reported %Inh values for a set of compounds.

{"columns": ["compound", "system-tested", "%Inh (%)"],
 "data": [
  ["COc1ccc(NC(=O)c2ccc(-c3cc(-c4nnc(C)o4)ccc3C)cc2)cc1 [GW595885]", "DRAK2", 0],
  ["Cl.c1ccc(Cn2ccc3cc(Nc4ncnc5ccccc45)ccc32)cc1 [GW275568]", "DRAK2", 0],
  ["Cl.Fc1ccccc1COc1ccc(Nc2ncnc3ccc(-c4nnc(C(F)(F)F)o4)cc23)cc1Cl [GW424170]", "DRAK2", 0],
  ["N#Cc1ccc(Oc2ccc(Nc3ncnc4cc[nH]c34)cc2Cl)cc1", "DRAK2", 1],
  ["CS(=O)(=O)CCNCc1ccc(-c2ccc3ncnc(Nc4ccc(OCc5ccccc5)c(Cl)c4)c3c2)o1.Cl [GW574783]", "DRAK2", 0],
  ["CN1CCC(n2cnc(-c3ccc(F)cc3)c2-c2ccnc(NC3CCNCC3)n2)CC1 [SB-229482]", "DRAK2", 0],
  ["Cc1ccc(NC(=O)c2cccc(C#N)c2)cc1-c1ccc(C(=O)Nc2ccncc2)cc1 [GSK1398463]", "DRAK2", 1],
  ["COc1cc2ncnc(Nc3ccc(OCc4ccccc4Br)c(Cl)c3)c2cc1OC.Cl [GI261590]", "DRAK2", 0]
]}
